- Test system: Histophilus somni
- EXPERIMENTAL PROTOCOL: minimum inhibitory concentration (MIC)
- APPLIED CONDITIONS: isolate (source animal id): 14
RECORDED METRIC: minimum inhibitory concentration

These recorded examples may help you get a feel for the data.
COMPOUND	minimum inhibitory concentration
CCCN1C[C@H](C)[C@@H](O)[C@](C)(O)[C@@H](CC)OC(=O)[C@H](C)[C@@H](O[C@H]2C[C@@](C)(OC)[C@@H](O)[C@H](C)O2)[C@H](C)[C@@H](O[C@@H]2O[C@H](C)C[C@H](N(C)C)[C@H]2O)[C@](C)(O)C[C@H]1C [Gamithromycin]	≤ 1 µg/mL
CNC(C)C1CCC(N)C(OC2C(N)CC(N)C(OC3OCC(C)(O)C(NC)C3O)C2O)O1 (stereo not drawn) [Gentamicin]	4 µg/mL

Exam item: Returns the measured minimum inhibitory concentration for the input compound. Input: COc1cc(NS(=O)(=O)c2ccc(N)cc2)nc(OC)n1 [sulfadimethoxine]
Marked response: ≤ 256 µg/mL
